TESTED_TARGET: MAP4K1 (human)
ASSAY_OVERVIEW: KINOMEscan competition binding
CONDITION_SET: compound 10.0 µM
Below: a set of entries, each annotated with reported kinase still bound, per cent of control.
Field format: number, assumed %, no unit text.

Examples from the recorded data:
molecule=O=C(NC1CC1)c1cccc(-c2ccc3c(NC(=O)C4CC4)n[nH]c3c2)c1 tested_target="MAP4K1 (human)" value_kind="kinase still bound, per cent of control" readout_value=68
molecule=CCC(=O)N1CCN(c2ccc(-n3c(=O)ccc4cnc5ccc(-c6cnc7ccccc7c6)cc5c43)cc2C(F)(F)F)CC1 tested_target="MAP4K1 (human)" value_kind="kinase still bound, per cent of control" readout_value=30
molecule=Cn1c(=O)n(-c2ccc(C(C)(C)C#N)cc2)c2c3cc(-c4cnc5ccccc5c4)ccc3ncc21 tested_target="MAP4K1 (human)" value_kind="kinase still bound, per cent of control" readout_value=100
molecule=COc1cc(C(=O)NC2CCN(C)CC2)ccc1Nc1ncc2c(n1)N(C1CCCC1)CCC(=O)N2C(C)C tested_target="MAP4K1 (human)" value_kind="kinase still bound, per cent of control" readout_value=100
molecule=C=CC(=O)Nc1cc(NC(=O)c2ccc(C)c(NC(=O)c3ccno3)c2)cc(C(F)(F)F)c1 tested_target="MAP4K1 (human)" value_kind="kinase still bound, per cent of control" readout_value=75

Report value only: kinase still bound, per cent of control, MAP4K1 (human), `OCCCNc1cc(-c2ccnc(Nc3cccc(Cl)c3)n2)ccn1`
100

State kinase still bound, per cent of control (MAP4K1 (human)) of `Cc1ccc2nc(NCCN)c3ncc(C)n3c2c1` .
81

Report kinase still bound, per cent of control from MAP4K1 (human) testing of `Cc1ccc(NC(=O)c2cccc(C(C)(C)C#N)c2)cc1Nc1ccc2ncn(C)c(=O)c2c1`
63

# assay system MAP4K1 (human): give kinase still bound, per cent of control of `N#Cc1c(NC(=O)c2cccc3ccccc23)sc2c1CCCC2`
89

----------
TESTED_TARGET: MST4 (human)
ASSAY_OVERVIEW: KINOMEscan competition binding
CONDITION_SET: compound 10.0 µM
VALUE_KIND: kinase still bound, per cent of control (%)
Reply with just the number (in %).

For the compound `C=CC(=O)Nc1cccc(Oc2nc(Nc3ccc(N4CCN(C)CC4)cc3OC)ncc2Cl)c1` , report kinase still bound, per cent of control.
100

Please list kinase still bound, per cent of control recorded for the compound COc1cc(C(=O)NC2CCN(C)CC2)ccc1Nc1ncc2c(n1)N(C1CCCC1)C(C)CC(=O)N2C (stereo not given)
100

In one line, give reported kinase still bound, per cent of control of the entry `C=CC(=O)Nc1cccc(Nc2nc(N[C@H]3CC[C@H](N(C)C)CC3)nc3c2ncn3C(C)C)c1` .
16

----------
Attribute: kinase still bound, per cent of control
Test system: ABL1 (human), P00519 [Q252H]
ASSAY_OVERVIEW: KINOMEscan competition binding
CONDITION_SET: compound 10.0 µM
The reply should be a number in %, with the unit left off.

Guide cases for kinase still bound, per cent of control, answers given:
compound=COc1cc(C(=O)NC2CCN(C)CC2)ccc1Nc1ncc2c(n1)N(C1CCCC1)CCC(=O)N2C(C)C value_unit=% readout_value=100
compound="COc1cc(C)c(Sc2cnc(NC(=O)c3ccc(CNC(C)C(C)C)cc3)s2)cc1C(=O)N1CCN(C(C)=O)CC1 (centres undefined)" value_unit=% readout_value=100
compound=Cc1cn(-c2cc(C(=O)Nc3ccc(C)c(NC(=O)c4ccno4)c3)cc(C(F)(F)F)c2)cn1 value_unit=% readout_value=13

Lab note: ABL1 (human), P00519 [Q252H] assay, enter kinase still bound, per cent of control for `CCOc1cc(N2CCC(O)CC2)ccc1Nc1ncc2c(n1)N(C)c1ccccc1C(=O)N2C` here
100

Please report kinase still bound, per cent of control with ABL1 (human), P00519 [Q252H] for item `CC[C@@H]1C(=O)N(C)c2cnc(Nc3ccc(C(=O)NC4CCN(C)CC4)cc3OC)nc2N1C1CCCC1` .
100

Provide kinase still bound, per cent of control, tested on ABL1 (human), P00519 [Q252H], for `Cc1n[nH]c2ccc(-c3cncc(OC[C@@H](N)Cc4c[nH]c5ccccc45)c3)cc12` .
100

Fill in kinase still bound, per cent of control for `OCCCNc1cc(-c2ccnc(Nc3cccc(Cl)c3)n2)ccn1` tested with ABL1 (human), P00519 [Q252H].
100

Give kinase still bound, per cent of control for `COc1cc(N2CCN(C)CC2)ccc1Nc1ncc2c(n1)N(C)c1ccccc1C(=O)N2C` tested on ABL1 (human), P00519 [Q252H].
100

GET kinase still bound, per cent of control where system = ABL1 (human), P00519 [Q252H] and item = `CCOc1cc2ncc(C#N)c(Nc3ccc(OCc4ccccn4)c(Cl)c3)c2cc1NC(=O)/C=C/CN(C)C`
71

----------
TESTED_TARGET: NEK4 (human) (UniProt P51957)
Sequence (P51957 whole entry, looked up): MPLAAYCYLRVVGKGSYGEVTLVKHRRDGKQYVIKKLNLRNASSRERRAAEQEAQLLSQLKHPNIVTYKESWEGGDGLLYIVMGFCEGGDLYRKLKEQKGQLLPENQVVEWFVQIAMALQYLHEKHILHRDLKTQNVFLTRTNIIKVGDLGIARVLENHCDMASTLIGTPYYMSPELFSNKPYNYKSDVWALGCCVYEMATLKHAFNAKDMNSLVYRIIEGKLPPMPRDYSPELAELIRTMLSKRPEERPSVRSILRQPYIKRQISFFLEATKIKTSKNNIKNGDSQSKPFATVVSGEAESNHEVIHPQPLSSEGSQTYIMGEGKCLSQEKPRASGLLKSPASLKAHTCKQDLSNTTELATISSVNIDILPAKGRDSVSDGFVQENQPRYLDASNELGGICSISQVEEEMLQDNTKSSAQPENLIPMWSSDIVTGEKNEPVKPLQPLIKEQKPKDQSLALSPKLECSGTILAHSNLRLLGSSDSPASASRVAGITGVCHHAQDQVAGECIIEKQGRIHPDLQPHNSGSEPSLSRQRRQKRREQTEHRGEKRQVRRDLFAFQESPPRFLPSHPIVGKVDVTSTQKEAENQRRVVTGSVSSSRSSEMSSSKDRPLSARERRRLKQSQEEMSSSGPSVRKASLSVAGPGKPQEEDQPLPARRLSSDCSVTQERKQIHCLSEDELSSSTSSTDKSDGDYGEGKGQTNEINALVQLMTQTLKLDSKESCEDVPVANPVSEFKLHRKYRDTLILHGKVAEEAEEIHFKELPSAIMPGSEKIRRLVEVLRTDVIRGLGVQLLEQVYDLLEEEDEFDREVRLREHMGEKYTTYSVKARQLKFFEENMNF
ASSAY_OVERVIEW: KINOMEscan competition binding
CONDITION_SET: compound 10.0 µM
This section presents compounds with their documented kinase still bound, per cent of control values.
Expressed in %, but write only the number.

molecule=Cc1cc([C@@H](C)Nc2ccccc2C(=O)O)c2nc(N3CCOCC3)cc(=O)n2c1 value_unit=% readout_value=61
molecule=C[C@@H](Oc1cc(-n2cnc3ccc(CN4CCN(C)CC4)cc32)sc1C(N)=O)c1ccccc1C(F)(F)F value_unit=% readout_value=69

Next:
Using the record for `CCN1CCN(Cc2ccc(Nc3ncc4c(n3)N(C)c3ccccc3C(=O)N4C)cc2C(F)(F)F)CC1` , state its measured kinase still bound, per cent of control.
80

----------
TESTED_TARGET: MAP3K10 (human) (UniProt Q02779)
Sequence (Q02779 whole entry, looked up): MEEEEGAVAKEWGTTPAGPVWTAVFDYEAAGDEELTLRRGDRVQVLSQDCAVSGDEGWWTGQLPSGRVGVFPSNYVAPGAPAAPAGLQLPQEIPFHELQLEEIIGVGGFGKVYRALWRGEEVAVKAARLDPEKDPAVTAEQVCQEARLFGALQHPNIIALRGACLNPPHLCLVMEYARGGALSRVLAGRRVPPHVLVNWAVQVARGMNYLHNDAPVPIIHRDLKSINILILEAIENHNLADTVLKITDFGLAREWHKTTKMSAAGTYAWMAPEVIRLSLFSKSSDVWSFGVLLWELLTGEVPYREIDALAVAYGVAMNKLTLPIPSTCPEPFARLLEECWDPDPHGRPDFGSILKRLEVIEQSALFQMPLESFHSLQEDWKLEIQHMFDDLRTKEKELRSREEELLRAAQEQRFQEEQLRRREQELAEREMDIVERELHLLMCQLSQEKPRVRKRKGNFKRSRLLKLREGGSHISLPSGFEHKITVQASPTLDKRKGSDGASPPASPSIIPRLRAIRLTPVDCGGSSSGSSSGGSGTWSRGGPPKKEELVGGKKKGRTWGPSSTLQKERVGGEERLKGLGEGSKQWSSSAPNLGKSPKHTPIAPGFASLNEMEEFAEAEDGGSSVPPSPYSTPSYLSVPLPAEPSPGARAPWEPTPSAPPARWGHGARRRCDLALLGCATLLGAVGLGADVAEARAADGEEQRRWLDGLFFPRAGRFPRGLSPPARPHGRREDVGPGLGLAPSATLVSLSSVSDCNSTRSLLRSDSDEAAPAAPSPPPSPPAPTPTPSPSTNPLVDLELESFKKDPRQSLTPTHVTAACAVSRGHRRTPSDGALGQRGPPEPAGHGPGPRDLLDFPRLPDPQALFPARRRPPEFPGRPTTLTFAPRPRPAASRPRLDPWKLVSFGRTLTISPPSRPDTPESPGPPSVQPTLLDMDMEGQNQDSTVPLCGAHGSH
ASSAY_OVERVIEW: KINOMEscan competition binding
CONDITION_SET: compound 10.0 µM
Each record here notes measured kinase still bound, per cent of control.
Return type: number; implicit unit %.

compound=O=C1Nc2ccc(I)cc2/C1=C/c1cc(Br)c(O)c(Br)c1 value_kind="kinase still bound, per cent of control" readout_value=93
compound=Nc1ccc(-c2ccc3ncc4ccc(=O)n(-c5cccc(C(F)(F)F)c5)c4c3c2)cn1 value_kind="kinase still bound, per cent of control" readout_value=100

Report kinase still bound, per cent of control for `O=C(O)c1ccc(Nc2ncc3c(n2)-c2ccc(Cl)cc2C(c2c(F)cccc2F)=NC3)cc1`
67

Read off the recorded kinase still bound, per cent of control for `O=C(NC1CC1)c1cccc(-c2ccc3c(NC(=O)C4CC4)n[nH]c3c2)c1`
95

Supply reported kinase still bound, per cent of control belonging to this compound: COc1cc(C(=O)NC2CCN(C)CC2)ccc1Nc1ncc2c(n1)N(C1CCCC1)C(C)CC(=O)N2C (stereo not given)
100

In one line, give reported kinase still bound, per cent of control of the entry `COc1cc(N2CCN(C)CC2)ccc1Nc1nc(N)c(C(=O)c2c(Cl)cccc2Cl)s1` .
100

Identify kinase still bound, per cent of control associated with the compound `CCN1CCN(Cc2ccc(Nc3ncc4c(n3)N(C)c3ccccc3C(=O)N4C)cc2C(F)(F)F)CC1`
100

Give recorded kinase still bound, per cent of control. `Cc1ccc(C(=O)Nc2cccc(C(F)(F)F)c2)cc1Nc1cncc(C(N)=O)c1`
100

Respond only with kinase still bound, per cent of control recorded for `OCCCNc1cc(-c2ccnc(Nc3cccc(Cl)c3)n2)ccn1`
100

Consider the compound `CCOc1cc2ncc(C#N)c(Nc3ccc(OCc4ccccn4)c(Cl)c3)c2cc1NC(=O)/C=C/CN(C)C` . State its measured kinase still bound, per cent of control.
88

Report measured kinase still bound, per cent of control; entry is `CCCS(=O)(=O)Nc1ccc(F)c(C(=O)c2c[nH]c3ncc(-c4ccc(Cl)cc4)cc23)c1F`
73

Retrieve kinase still bound, per cent of control measured for `Cc1cc([C@@H](C)Nc2ccccc2C(=O)O)c2nc(N3CCOCC3)cc(=O)n2c1` and print it.
96

Using the record for `C=CC(=O)Nc1cccc(Oc2nc(Nc3ccc(N4CCN(C)CC4)cc3OC)ncc2Cl)c1` , state its measured kinase still bound, per cent of control.
100

State its kinase still bound, per cent of control for this compound: `CN(C)C/C=C/C(=O)Nc1cccc(Nc2ncc3c(n2)N(C)c2ccccc2C(=O)N3C)c1`
89

----------
TESTED_TARGET: STK3 (human)
ASSAY_OVERVIEW: KINOMEscan competition binding
CONDITION_SET: compound 10.0 µM
VALUE_KIND: kinase still bound, per cent of control (%)
Report the value in % with no unit label.

Observe how each entry below is paired with its result.
molecule=N#Cc1c(NC(=O)c2cccc3ccccc23)sc2c1CCCC2 readout_value=91
molecule=O=C1Nc2ccc(I)cc2/C1=C/c1cc(Br)c(O)c(Br)c1 readout_value=3.3
molecule=OCCCNc1cc(-c2ccnc(Nc3cccc(Cl)c3)n2)ccn1 readout_value=100
molecule=C=CC(=O)Nc1cccc(Oc2nc(Nc3ccc(N4CCN(C)CC4)cc3OC)ncc2Cl)c1 readout_value=100
molecule=C[C@@H](Oc1cc(-n2cnc3ccc(CN4CCN(C)CC4)cc32)sc1C(N)=O)c1ccccc1C(F)(F)F readout_value=74

Then this compound:
// fetch kinase still bound, per cent of control for `CCC(=O)N1CCN(c2ccc(-n3c(=O)ccc4cnc5ccc(-c6cnc7ccccc7c6)cc5c43)cc2C(F)(F)F)CC1` ; system: STK3 (human)
24
